Assay: plasma pharmacokinetics on day 5 after multiple oral doses of apremilast in healthy male subjects
Format: in vivo, human
Settings: male, human, plasma, oral, 30 mg, apremilast 30 mg b.i.d., day 5, plasma; read-out: Cmax, geometric mean (geometric CV%)
reported property: Cmax (ng/mL)

- CCOc1cc([C@@H](CS(C)(=O)=O)N2C(=O)c3cccc(NC(C)=O)c3C2=O)ccc1OC: 352

====

Assay: plasma pharmacokinetics on day 5 after multiple oral doses of apremilast in healthy male subjects
Type: in vivo, human
Details: male, human, plasma, oral, 50 mg, apremilast 50 mg b.i.d., day 5, plasma; read-out: Cmax, geometric mean (geometric CV%)
reported property: Cmax (ng/mL)

- CCOc1cc([C@@H](CS(C)(=O)=O)N2C(=O)c3cccc(NC(C)=O)c3C2=O)ccc1OC [apremilast]: 507
